Test system: SARS-CoV-2
Assay type: cell-based, SARS-CoV-2 (2019-nCoV/USA-WA1/2020 strain)
test.settings: read-out: mean EC50, direct SARS-CoV-2 inactivation
readout.name: pEC50
To interpret pEC50, take it as minus log10 of a concentration measured in moles per litre.

Please fill in: pEC50 reported for C=CC1=C(C)c2cc3[n-]c(cc4[n-]c(cc5nc(cc1n2)C(C)=C5C=C)c(C)c4CCC(=O)O)c(CCC(=O)O)c3C.[Sn+2] = 5.88

====

Tested on: Vero 76 cells
readout.name: CC50 (µM)
Provide only the numeric value, understood in µM.

So the reported CC50 for C=CC1=C(C)c2cc3[n-]c(cc4[n-]c(cc5nc(cc1n2)C(C)=C5C=C)c(C)c4CCC(=O)O)c(CCC(=O)O)c3C.[Sn+2] , on Vero 76 cells, turned out to be 39

====

Tested on: Vero 76 cells
test.settings: read-out: VIS CC50; visual; Vero 76
readout.name: CC50 (µM)
Provide only the numeric value, understood in µM.

So the reported CC50 for C=CC1=C(C)c2cc3[n-]c(cc4[n-]c(cc5nc(cc1n2)C(C)=C5C=C)c(C)c4CCC(=O)O)c(CCC(=O)O)c3C.[Sn+2] [RBT-9, Stannous protoporphyrin] , on Vero 76 cells, turned out to be 27
